Source of measurements: patent US20070299062A1

- TEST_TARGET: UniProtKB Q99705
- ASSAY_DETAILS: MCH-1R competition binding assay
- Experimental: In vitro binding and function assays are performed on membranes derived from cells or tissues expressing endogenous MCH1R. Competition binding assays are performed to identify high affinity compounds. […] The filters are washed to remove loosely associated MCH and labeled MCH is quantified. Data is analyzed and IC50 and Ki are calculated to determine compound affinity.
Classify: y when Ki is strictly less than 40 nM; n when Ki is not.

Query: Is Ki strictly under 40 nM for the entry `CS(=O)(=O)N1CCN(Cc2ccc3c(c2)CC[C@H](n2cnc4cc(-c5cccnc5)sc4c2=O)C3)CC1` ?
Reply: n

Query: is_below(Ki, 40 nM) for `CS(=O)(=O)N1CCN(Cc2ccc3c(c2)CC[C@H](n2cnc4cc(-c5ccoc5)sc4c2=O)C3)CC1` ?
Reply: n

Query: I wonder whether `CS(=O)(=O)N1CCN(Cc2ccc3c(c2)CC[C@H](n2cnc4cc(-c5ccnc(Cl)c5)sc4c2=O)C3)CC1` has Ki below 40 nM. Can you tell?
Reply: n

Query: Hello, I'm reviewing records and need to know if Ki of `COc1ncccc1-c1cc2ncn([C@H]3CCc4cc(CN5CCN(S(C)(=O)=O)CC5)ccc4C3)c(=O)c2s1` is below 40 nM. Could you check?
Reply: n

Query: Record `O=c1c2sc(-c3ccc(Cl)cc3)cc2ncn1[C@H]1CCc2cc(CN3CCCCC3)ccc2C1` : is its Ki strictly below 40 nM?
Reply: y

Query: Is it true that Ki reported for `CC(=O)N1CCN(Cc2ccc3c(c2)CC[C@H](n2cnc4cc(-c5cccc(F)c5)sc4c2=O)C3)CC1` is less than 40 nM?
Reply: y

Query: Record `CC(=O)N1CCN(Cc2ccc3c(c2)CC[C@H](n2cnc4cc(-c5cncc(Cl)c5)sc4c2=O)C3)CC1` : is its Ki strictly below 40 nM?
Reply: y

Query: Is it true that Ki reported for `O=c1c2sc(-c3ccc(Cl)cc3)cc2ncn1[C@H]1CCc2cc(CN3CC[C@H](O)C3)ccc2C1` is less than 40 nM?
Reply: y

Query: Decide: Ki of `CC(=O)N1CCN(Cc2ccc3c(c2)CC[C@H](n2cnc4cc(-c5ccsc5)sc4c2=O)C3)CC1` strictly below 40 nM?
Reply: n

Query: Determine whether this molecule shows Ki lower than 40 nM (ties excluded): `CC(=O)N1CCN(Cc2ccc3c(c2)CC[C@H](n2cnc4cc(-c5ccncc5)sc4c2=O)C3)CC1`
Reply: n

Query: Please check: Ki for `CN(C)Cc1ccc2c(c1)CC[C@H](n1cnc3cc(-c4ccc(Cl)cc4)sc3c1=O)C2` , strictly under 40 nM or not?
Reply: y

Query: Quick check: Ki of `CC(=O)N1CCN(Cc2ccc3c(c2)CC[C@H](n2cnc4cc(-c5ccc(Cl)c(Cl)c5)sc4c2=O)C3)CC1` under 40 nM?
Reply: n

Query: For this molecule, is Ki lower than 40 nM? CC(=O)N1CCN(Cc2ccc3c(c2)CC[C@H](n2cnc4cc(-c5ccc(C#N)cc5)sc4c2=O)C3)CC1 [(S)-4-(3-(6-((4-acetylpiperazin-1-yl)methyl)-1,2,3,4-tetrahy]
Reply: n

Query: Field: below-cutoff. Rule: recorded Ki strictly less than 40 nM. Subject: `O=c1c2sc(-c3ccc(Cl)cc3)cc2ncn1[C@H]1CCc2cc(CN3CCOCC3)ccc2C1`
Reply: n

Query: API: query returns whether the molecule falls strictly under 40 nM in Ki. Query: `CS(=O)(=O)C1CCN(Cc2ccc3c(c2)CC[C@H](n2cnc4cc(-c5ccc(Cl)cc5)sc4c2=O)C3)CC1`
Reply: y

Query: In the record for `CS(=O)(=O)N1CCN(Cc2ccc3c(c2)CC[C@H](n2cnc4cc(-c5cccc(C#N)c5)sc4c2=O)C3)CC1` , is Ki less than 40 nM?
Reply: n
